Where do these numbers come from? They come from patent US20240132624A1.

# ASSAYED_TARGET: T1, cyno FcRn/b2M (cyno, UniProt Q8SPV9 24-297; Q8SPW0 21-119, biotinylated)
# T1 construct: bought recombinant biotinylated protein (Immunitrack ITF05 or ACRO FCM-C82W5); also called cFcRn; cFcRn/cb2M
# T1 sequence (Q8SPV9 24-297 limits assumed, chain 1 of 2): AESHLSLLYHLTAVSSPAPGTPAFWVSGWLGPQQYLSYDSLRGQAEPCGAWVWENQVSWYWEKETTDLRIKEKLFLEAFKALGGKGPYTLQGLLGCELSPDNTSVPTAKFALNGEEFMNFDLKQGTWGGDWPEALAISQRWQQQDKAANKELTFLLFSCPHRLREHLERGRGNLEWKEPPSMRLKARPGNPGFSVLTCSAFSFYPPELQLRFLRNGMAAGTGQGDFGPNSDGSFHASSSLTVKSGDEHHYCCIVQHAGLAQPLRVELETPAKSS
# T1 sequence (Q8SPW0 21-119 limits assumed, chain 2 of 2): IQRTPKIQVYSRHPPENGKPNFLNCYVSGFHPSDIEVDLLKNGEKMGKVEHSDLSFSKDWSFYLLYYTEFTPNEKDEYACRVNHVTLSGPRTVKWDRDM
# EXPERIMENT: SPR pH 6.0;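 further: surface plasmon resonance kinetics at 25 °C, diluted periplasmic extracts injected over immobilized ligand surfaces, 120 s association then 600–3600 s dissociation, running buffer containing 150 mM NaCl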
REPORTED_METRIC: koff

BINDER	RESULT
T0263018B11 S52aP (VHH, name in Kabat numbering, FLAG3-His6 tagged) VHH: EVQLVESGGGVVQPGGSLRLSCAASGFTFSSYAMYWVRQAPGKGLEWVSAISPGGGSTDYADSVKGRFTISRDNSKNTLYLQMNSLRPEDTALYYCAADTLYTSLTWYSYWGQGTLVTVSS	0.0003 s⁻¹
T0263018B11 S101A (VHH, name in Kabat numbering, FLAG3-His6 tagged) VHH: EVQLVESGGGVVQPGGSLRLSCAASGFTFSSYAMYWVRQAPGKGLEWVSAISSGGGSTDYADSVKGRFTISRDNSKNTLYLQMNSLRPEDTALYYCAADTLYTSLTWYAYWGQGTLVTVSS	0.0013 s⁻¹
T0263018B11 F29D (VHH, name in Kabat numbering, FLAG3-His6 tagged) VHH: EVQLVESGGGVVQPGGSLRLSCAASGFTDSSYAMYWVRQAPGKGLEWVSAISSGGGSTDYADSVKGRFTISRDNSKNTLYLQMNSLRPEDTALYYCAADTLYTSLTWYSYWGQGTLVTVSS	0.0028 s⁻¹
T0263018B11 Y32M (VHH, name in Kabat numbering, FLAG3-His6 tagged) VHH: EVQLVESGGGVVQPGGSLRLSCAASGFTFSSMAMYWVRQAPGKGLEWVSAISSGGGSTDYADSVKGRFTISRDNSKNTLYLQMNSLRPEDTALYYCAADTLYTSLTWYSYWGQGTLVTVSS	0.0025 s⁻¹
T0263018B11 T57I (VHH, name in Kabat numbering, FLAG3-His6 tagged) VHH: EVQLVESGGGVVQPGGSLRLSCAASGFTFSSYAMYWVRQAPGKGLEWVSAISSGGGSIDYADSVKGRFTISRDNSKNTLYLQMNSLRPEDTALYYCAADTLYTSLTWYSYWGQGTLVTVSS	0.0014 s⁻¹
T0263018B11 T57M (VHH, name in Kabat numbering, FLAG3-His6 tagged) VHH: EVQLVESGGGVVQPGGSLRLSCAASGFTFSSYAMYWVRQAPGKGLEWVSAISSGGGSMDYADSVKGRFTISRDNSKNTLYLQMNSLRPEDTALYYCAADTLYTSLTWYSYWGQGTLVTVSS	0.0007 s⁻¹
T0263018B11 S52aY (VHH, name in Kabat numbering, FLAG3-His6 tagged) VHH: EVQLVESGGGVVQPGGSLRLSCAASGFTFSSYAMYWVRQAPGKGLEWVSAISYGGGSTDYADSVKGRFTISRDNSKNTLYLQMNSLRPEDTALYYCAADTLYTSLTWYSYWGQGTLVTVSS	0.00052 s⁻¹
